target: human Nav1.7 (Homo sapiens (Human), UniProt Q15858)
Sequence (Q15858 other isoform, or with tags, fused parts or gaps): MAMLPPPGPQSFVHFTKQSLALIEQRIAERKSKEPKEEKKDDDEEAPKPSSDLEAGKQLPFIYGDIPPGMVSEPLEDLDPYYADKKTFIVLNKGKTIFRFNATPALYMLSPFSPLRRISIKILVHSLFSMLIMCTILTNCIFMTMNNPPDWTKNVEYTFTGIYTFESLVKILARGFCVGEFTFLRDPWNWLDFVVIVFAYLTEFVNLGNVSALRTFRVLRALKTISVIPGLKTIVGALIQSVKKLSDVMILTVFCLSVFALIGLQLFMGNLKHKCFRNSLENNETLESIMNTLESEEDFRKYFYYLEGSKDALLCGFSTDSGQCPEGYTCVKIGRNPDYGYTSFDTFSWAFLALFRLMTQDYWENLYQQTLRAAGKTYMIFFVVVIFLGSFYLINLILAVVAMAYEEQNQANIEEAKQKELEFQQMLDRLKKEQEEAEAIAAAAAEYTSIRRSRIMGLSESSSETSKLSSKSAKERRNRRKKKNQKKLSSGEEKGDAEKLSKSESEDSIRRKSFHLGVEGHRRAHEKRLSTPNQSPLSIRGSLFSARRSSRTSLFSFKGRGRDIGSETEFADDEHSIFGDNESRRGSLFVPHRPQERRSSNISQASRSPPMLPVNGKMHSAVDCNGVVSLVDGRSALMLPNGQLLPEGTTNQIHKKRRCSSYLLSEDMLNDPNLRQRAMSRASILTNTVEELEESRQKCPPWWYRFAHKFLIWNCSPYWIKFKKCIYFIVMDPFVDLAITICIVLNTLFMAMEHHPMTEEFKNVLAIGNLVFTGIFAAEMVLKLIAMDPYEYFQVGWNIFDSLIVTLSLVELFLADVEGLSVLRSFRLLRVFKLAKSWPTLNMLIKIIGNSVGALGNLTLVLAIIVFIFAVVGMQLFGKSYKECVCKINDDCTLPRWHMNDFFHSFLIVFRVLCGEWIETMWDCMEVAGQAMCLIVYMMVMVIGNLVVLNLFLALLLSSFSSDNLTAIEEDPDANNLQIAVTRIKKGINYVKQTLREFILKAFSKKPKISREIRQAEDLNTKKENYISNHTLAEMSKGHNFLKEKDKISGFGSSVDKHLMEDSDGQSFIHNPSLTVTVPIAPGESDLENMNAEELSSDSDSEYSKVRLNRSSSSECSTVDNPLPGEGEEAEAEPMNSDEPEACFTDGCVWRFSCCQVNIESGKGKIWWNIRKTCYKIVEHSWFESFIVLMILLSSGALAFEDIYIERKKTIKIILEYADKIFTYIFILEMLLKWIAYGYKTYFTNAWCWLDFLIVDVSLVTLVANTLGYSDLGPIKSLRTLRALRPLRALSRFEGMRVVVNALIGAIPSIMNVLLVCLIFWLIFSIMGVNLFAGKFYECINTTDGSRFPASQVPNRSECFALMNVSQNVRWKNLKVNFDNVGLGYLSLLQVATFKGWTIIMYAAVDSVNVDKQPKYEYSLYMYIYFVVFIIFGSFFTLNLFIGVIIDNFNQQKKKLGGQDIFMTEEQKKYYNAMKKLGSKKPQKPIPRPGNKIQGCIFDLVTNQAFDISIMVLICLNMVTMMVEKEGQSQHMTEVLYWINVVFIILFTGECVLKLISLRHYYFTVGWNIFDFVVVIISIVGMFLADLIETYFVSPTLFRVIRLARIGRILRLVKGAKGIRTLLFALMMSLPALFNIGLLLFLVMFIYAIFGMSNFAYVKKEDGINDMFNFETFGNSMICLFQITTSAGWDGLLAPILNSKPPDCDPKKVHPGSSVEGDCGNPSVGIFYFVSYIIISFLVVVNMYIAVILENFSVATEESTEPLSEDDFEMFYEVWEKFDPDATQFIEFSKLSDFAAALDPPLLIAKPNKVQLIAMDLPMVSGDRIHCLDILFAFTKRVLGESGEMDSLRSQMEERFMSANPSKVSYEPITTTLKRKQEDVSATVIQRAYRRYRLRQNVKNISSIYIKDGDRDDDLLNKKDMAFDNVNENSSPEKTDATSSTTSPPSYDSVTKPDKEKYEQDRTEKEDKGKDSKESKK
procedureText: FLIPR or FLIPR TETRA sodium dye assay with KCl and test article pre-incubation
Format: cell-based
experimentalSetup: recombinant human Nav1.7 in HEK293 cells; CoroNa Green sodium dye; veratridine + scorpion venom; read-out: Nav1.7 IC50 (μM) ± SEM
assayReadout: log10 of IC50 (log10 of the value in µM)
// do not treat as linear: log10 of IC50, unit µM

These recorded examples may help you get a feel for the data.
compound | log10 of IC50
O=C(NC(CO)CO)c1cc(-c2ccc(Oc3ccc(F)cc3)cc2)cc(Cl)n1 [compound 125] | -0.11
O=C(O)CN(c1ccccc1)c1cc(C(=O)O)nc(-c2ccc(Oc3ccc(F)cc3)cc2)c1 [compound 92] | 0.58
NC(=O)c1cc(-c2ccc(Oc3ccc(F)cc3)cc2)cc([C@@H](O)CO)n1 [compound 96] | -0.92
N#Cc1ccc(Oc2ccc(-c3cc([C@H](O)CO)cc(C(N)=O)n3)cc2)cc1 [compound 37] | -0.36
CN(c1ccccc1)c1cc(-c2ccc(Oc3ccc(C#N)cc3)cc2)cc(C(N)=O)n1 [compound 146] | -1.05
NC(=O)c1cc(N2CCN(C3=NCCCN3)CC2)cc(-c2ccc(Oc3ccc(F)cc3)cc2)n1 [compound 77] | 0.63

Quick one: give me log10 of IC50 for each item below, same order please.
1. NC(=O)c1cc([C@H](O)CO)cc(-c2ccc(Oc3cc(Cl)ccc3F)cc2)n1 [compound 39]
2. NC(=O)c1cc(N(CCc2nn[nH]n2)c2ccccc2)cc(-c2ccc(Oc3ccc(F)cc3)cc2)n1 [compound 150]

1: -0.89; 2: -0.34

----------
Can you tell me IC50 for the items I'm about to list?
target: human Nav1.7 (Homo sapiens (Human), UniProt Q15858)
procedureText: FLIPR or FLIPR TETRA sodium dye assay with KCl and test article pre-incubation
Format: cell-based
experimentalSetup: recombinant human Nav1.7 in HEK293 cells; CoroNa Green sodium dye; veratridine + scorpion venom; read-out: Nav1.7 IC50 (μM) ± SEM
One number for each entry, in µM.

structureSmiles | assayReadout | value
O=C1NCCN1CCNCc1cccc(-c2ccc(Oc3ccc(F)cc3)cc2)n1 | IC50 | 0.07

Dear colleague, could you please provide IC50 for the compounds listed below?
1. NC(=O)CN(c1ccccc1)c1cc(-c2ccc(Oc3ccc(F)cc3)cc2)cc(C(N)=O)n1
2. NC(=O)c1cc([C@@H](O)CO)cc(-c2ccc(Oc3cc(Cl)ccc3F)cc2)n1

0.22
0.17

Give IC50 (human Nav1.7 (Homo sapiens (Human), UniProt Q15858)) of the following compound: NC(=O)c1cc(-c2ccc(Oc3ccc(F)cc3)cc2)cc(NC(CO)CO)n1
1.29

----------
Can you tell me IC50 for the items I'm about to list?
target: human Nav1.7 (Homo sapiens (Human), UniProt Q15858)
procedureText: FLIPR or FLIPR TETRA sodium dye assay with KCl and test article pre-incubation
Type: cell-based
experimentalSetup: recombinant human Nav1.7 in HEK293 cells; CoroNa Green sodium dye; veratridine + scorpion venom; read-out: Nav1.7 IC50 (μM) ± SEM
Give bare numbers, in µM.

Reference set (3 entries):
compound | assayReadout | value
CN(c1ccccc1)c1cc(-c2ccc(Oc3ccc(F)cc3)cc2)cc(C(=O)O)n1 [compound 119] | IC50 | 2.46
N#CCCN(c1ccccc1)c1cc(-c2ccc(Oc3ccc(F)cc3)cc2)cc(C(N)=O)n1 [compound 115] | IC50 | 0.08
N=C(N)N1CCN(c2cc(C(N)=O)nc(-c3ccc(Oc4ccc(F)cc4)cc3)c2)CC1 [compound 80] | IC50 | 1.3

Would you kindly look at the next entry?
Name the reported IC50 value associated with the compound N#Cc1ccc(Oc2ccc(-c3cccc(CNCCN4CCNC4=O)n3)cc2)cc1 [compound 67]
0.17

----------
target: human Nav1.7 (Homo sapiens (Human))
procedureText: FLIPR or FLIPR TETRA sodium dye assay with KCl and test article pre-incubation
Format: cell-based
experimentalSetup: recombinant human Nav1.7 in HEK293 cells; CoroNa Green sodium dye; veratridine + scorpion venom; read-out: Nav1.7 IC50 (μM) ± SEM
assayReadout: IC50 (µM)
Numbers only, in µM.

Here's what some known entries look like.
structureSmiles | assayReadout | value
NC(=O)c1cc([C@H](O)CO)cc(-c2ccc(Oc3cccc(OC(F)(F)F)c3)cc2)n1 | IC50 | 0.63
CN(c1ccccc1)c1cc(C(N)=O)nc(-c2ccc(Oc3ccc(C#N)cc3)cc2)c1 | IC50 | 1.6
N#CCCN(c1ccccc1)c1cc(-c2ccc(Oc3ccc(F)cc3)cc2)cc(C(=O)O)n1 | IC50 | 2.17

List the reported IC50 of each compound below.
1. C[C@H](NCc1cccc(-c2ccc(Oc3ccc(F)cc3)cc2)n1)C(N)=O
2. N#Cc1cc(Oc2ccc(-c3cc([C@@H](O)CO)cc(C(N)=O)n3)cc2)ccc1C(F)(F)F

1. 0.23
2. 0.38

----------
target: UniProt Q15858
procedureText: FLIPR or FLIPR TETRA sodium dye assay with KCl and test article pre-incubation
Format: cell-based
experimentalSetup: recombinant human Nav1.7 in HEK293 cells; CoroNa Green sodium dye; veratridine + scorpion venom; read-out: Nav1.7 IC50 (μM) ± SEM
I'd be grateful if you could share measured IC50 for these entries.
Answers are plain numbers, in µM.

Here's what some known entries look like.
structureSmiles | target | IC50 (µM)
N#Cc1ccc(Oc2ccc(-c3cccc(CNCCN4CCNC4=O)n3)cc2)c(C(F)(F)F)c1 | UniProt Q15858 | 0.12
NC(=O)c1cc(N2CCNCC2)cc(-c2ccc(Oc3ccc(F)cc3)cc2)n1 | UniProt Q15858 | 0.23

Here's the next entry for you.
I am curious: what IC50 value has been reported for C[C@H](Nc1cc(C#N)nc(-c2ccc(Oc3ccc(F)cc3)cc2)c1)C(N)=O ?
1.97

----------
target: human Nav1.7 (Homo sapiens (Human))
procedureText: FLIPR or FLIPR TETRA sodium dye assay with KCl and test article pre-incubation
Assay type: cell-based
experimentalSetup: read-out: Nav1.7 IC50 (μM) ± SEM
Field: IC50. Provide a value for each of the compounds that follow.
Answers are plain numbers, in µM.

compound | target | IC50 [µM]
N#Cc1cc(NCCCn2ccnc2)cc(-c2ccc(Oc3ccc(F)cc3)cc2)n1 [compound 110] | human Nav1.7 (Homo sapiens (Human)) | 0.62
O=C1NCCN1CCNCCc1cccc(-c2ccc(Oc3ccc(F)cc3)cc2)n1 [compound 64] | human Nav1.7 (Homo sapiens (Human)) | 0.1

For the next question, use this compound.
Would you mind telling me what IC50 value was observed for N#Cc1ccc(Oc2ccc(-c3cccc(C(O)CO)n3)cc2)cc1 (stereo not drawn) [compound 8] ?
0.47
